Numbers sourced from patent US5641780A.

We begin with a simple list: items and their reported MLD (minimum lethal dose).
- System: ddY-strain male mice
- Protocol Description: Acute toxicity (minimum lethal dose)
- Assay type: in vivo
- Condition Notes: intravenous, mortality at 14 days after administration

Input line: Item: COC(=O)c1c(C)[nH]c2c(OC(=O)CSCC(=O)O)cc3c(c12)C(CBr)CN3C(=O)/C=C/c1ccc(OC)cc1 (stereo not drawn) Test system: ddY-strain male mice Read-out: MLD (minimum lethal dose) Value: ?
Output line: 2.0 mg/kg

Input line: Also check COC(=O)c1c(C)[nH]c2c(OC(=O)NN3CCN(C)CC3)cc3c(c12)C(CBr)CN3C(=O)/C=C/c1ccc(OC)cc1 (stereo not drawn) [Compound 19]
Output line: > 8.0 mg/kg

Input line: Let us now turn to COC(=O)c1c(C)[nH]c2c(OC(=O)NCC(=O)O)cc3c(c12)C(CBr)CN3C(=O)c1cc2cc(OC)c(OC)c(OC)c2[nH]1 (stereo not drawn)
Output line: > 4.0 mg/kg

Input line: Queued: COC(=O)c1c(C)[nH]c2c(OC(=O)NN3CCN(C)CC3)cc3c(c12)C(CBr)CN3C(=O)/C=C/c1ccc(OC)cc1 (stereo not drawn) [Compound 37]
Output line: > 8.0 mg/kg

Input line: Also need COC(=O)c1c(C)[nH]c2c(OC(=O)c3ccc(CN4CCN(C)CC4)cc3)cc3c(c12)C(CBr)CN3C(=O)/C=C/c1ccc(OC)cc1 (stereo not drawn) , thanks.
Output line: 2.0 mg/kg

Here is the next item to consider.
Input line: Request body: readout MLD (minimum lethal dose), system ddY-strain male mice, query COC(=O)c1c(C)[nH]c2c(OC(=O)NN3CCC(N4CCCCC4)CC3)cc3c(c12)C(CBr)CN3C(=O)/C=C/c1ccc(OC)cc1 (stereo not drawn) . Return the value.
Output line: > 8.0 mg/kg

---

Recorded MLD (minimum lethal dose), one value per entry.
- Test system: ddY-strain male mice
- Protocol Description: Acute toxicity (minimum lethal dose)
- Assay type: in vivo
- Condition Notes: intravenous, mortality at 14 days after administration
Respond with the bare value in mg/kg.

Input line: I'm curious: which MLD (minimum lethal dose) was measured for COC(=O)c1c(C)[nH]c2c(OC(=O)Oc3ccccc3)cc3c(c12)C(CBr)CN3C(=O)c1cc2cc(OC)c(OC)c(OC)c2[nH]1 (stereo not drawn) [Compound 8] tested on ddY-strain male mice?
Output line: 0.50

---

Listed next: entries and their corresponding MLD (minimum lethal dose).
- Test system: ddY-strain male mice
- Protocol Description: Acute toxicity (minimum lethal dose)
- Assay type: in vivo
- Condition Notes: intravenous, mortality at 14 days after administration

Input line: What value of MLD (minimum lethal dose) on ddY-strain male mice does COC(=O)c1c(C)[nH]c2c(OC(=O)CN3CCC(N4CCCCC4)CC3)cc3c(c12)C(CBr)CN3C(=O)/C=C/c1ccc(OC)cc1 (centres unmarked) have?
Output line: 2.0 mg/kg

New cases:
Input line: Record lookup: for ddY-strain male mice, what MLD (minimum lethal dose) belongs to COC(=O)c1c(C)[nH]c2c(OC(=O)NN(C)C)cc3c(c12)C(CBr)CN3C(=O)/C=C/c1ccc(OC)cc1 (centres unmarked) ?
Output line: 2.0 mg/kg

Input line: Same question, COC(=O)c1c(C)[nH]c2c(OC(=O)NC(Cc3ccccc3)C(=O)O)cc3c(c12)C(CBr)CN3C(=O)c1cc2cc(OC)c(OC)c(OC)c2[nH]1 (centres unmarked) this time
Output line: > 4.0 mg/kg

Input line: Next molecule: CNN(C)C(=O)Oc1cc2c(c3c(C(=O)OC)c(C)[nH]c13)C(CBr)CN2C(=O)/C=C/c1ccc(OC)cc1 (centres unmarked)
Output line: 4.0 mg/kg

Input line: Query COC(=O)c1c(C)[nH]c2c(OC(=O)CN3CCN(C)CC3)cc3c(c12)C(CBr)CN3C(=O)/C=C/c1ccc(OC)cc1 (centres unmarked) next
Output line: 4.0 mg/kg
